Reference source: ChEMBL document CHEMBL4118126

Molecular target: Calcium/calmodulin-dependent protein kinase kinase 2 (Homo sapiens, UniProt Q96RR4)
Sequence (Q96RR4 whole entry): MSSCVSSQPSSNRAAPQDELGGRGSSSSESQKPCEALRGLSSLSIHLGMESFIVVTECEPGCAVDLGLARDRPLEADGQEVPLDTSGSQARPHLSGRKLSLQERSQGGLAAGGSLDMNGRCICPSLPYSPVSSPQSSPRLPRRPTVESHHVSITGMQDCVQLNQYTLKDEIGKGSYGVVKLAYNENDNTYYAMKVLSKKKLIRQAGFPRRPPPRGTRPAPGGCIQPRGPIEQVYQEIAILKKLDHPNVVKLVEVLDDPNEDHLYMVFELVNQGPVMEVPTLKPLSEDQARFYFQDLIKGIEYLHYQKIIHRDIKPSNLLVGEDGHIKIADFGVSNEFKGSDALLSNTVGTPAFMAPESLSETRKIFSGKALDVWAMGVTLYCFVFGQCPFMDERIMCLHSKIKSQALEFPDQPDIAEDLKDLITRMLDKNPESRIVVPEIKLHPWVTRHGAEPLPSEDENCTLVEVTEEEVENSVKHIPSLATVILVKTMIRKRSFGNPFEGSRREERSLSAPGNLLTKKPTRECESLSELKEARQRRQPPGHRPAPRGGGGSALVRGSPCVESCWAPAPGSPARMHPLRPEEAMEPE
Assay: Inhibition of full-length human GST-tagged CAMKK2 using 5FAM-AKPKGNKDYHLQTCCGSLAYRRR-amide as substrate preincubated for 30 mins followed by substrate addition measured after 120 mins by fluorescence polarization assay
pIC50: −log10 of the molar value.
assay-metric: pIC50

Report measured pIC50; entry is `COc1ccccc1Nc1nccc(-c2ccc(C(=O)O)c(C(C)C)c2)n1`
8.70

Look up and report measured pIC50 for this entry: `COc1ccccc1Nc1ncc(F)c(-c2ccc(C(=O)O)c(C(C)C)c2)n1`
8.10 to 9.00

Tell me pIC50 reported for `NC(=O)c1ccc(-c2ccnc(Nc3cccc(-c4ccccc4)c3)n2)cc1`
7.60 to 8.10

Please list pIC50 recorded for the compound `Cc1ccc(CN2CCOCC2)cc1-c1cc2c(-c3ccc(C(N)=O)cc3)ccnc2[nH]1`
7.80 to 8.80

Query pIC50 for `COc1ccccc1-c1cc2c(-c3ccc(C(N)=O)c(C4CCCC4)c3)ccnc2[nH]1`
8.70

Fill in pIC50 for record `Cc1cc(OCCN2CCOCC2)ccc1-c1cc2c(-c3ccc(C#N)c(C(C)C)c3)ccnc2[nH]1`
8.20

Give pIC50 for `CN(C)CCCNC(=O)c1cccc(-c2cc3c(-c4ccc(C(N)=O)cc4)ccnc3[nH]2)c1`
7.90 to 8.60

State its pIC50 for this compound: `COc1ccccc1Nc1ncc(F)c(-c2ccc(C(N)=O)c(C(C)C)c2)n1`
6.50 to 7.40

Answer with reported pIC50 of `Cc1ccc(CN2CCOCC2)cc1-c1cc2c(-c3ccc(C#N)c(C(C)C)c3)ccnc2[nH]1`
7.90

Output measured pIC50 for this item: `O=C(O)c1ccc(-c2ccnc(Nc3cccc(-c4ccccc4)c3)n2)cc1`
7.00 to 8.10

Consider the compound `CN(C)Cc1cccc(-c2cc3c(-c4ccc(C(N)=O)cc4)ccnc3[nH]2)c1` . State its measured pIC50.
7.50 to 8.40

State its pIC50: `CC(C)Cc1cc(-c2c[nH]c3ncc(-c4ccccc4)cc23)ccc1C(=O)O`
7.60 to 8.30

Tell us which pIC50 value is on record for `O=C(O)c1ccc(-c2c[nH]c3ncc(-c4ccccc4)cc23)cc1`
6.70

---

Target: Insulin receptor (Homo sapiens, UniProt P06213)
Sequence (P06213 28-758 limits assumed): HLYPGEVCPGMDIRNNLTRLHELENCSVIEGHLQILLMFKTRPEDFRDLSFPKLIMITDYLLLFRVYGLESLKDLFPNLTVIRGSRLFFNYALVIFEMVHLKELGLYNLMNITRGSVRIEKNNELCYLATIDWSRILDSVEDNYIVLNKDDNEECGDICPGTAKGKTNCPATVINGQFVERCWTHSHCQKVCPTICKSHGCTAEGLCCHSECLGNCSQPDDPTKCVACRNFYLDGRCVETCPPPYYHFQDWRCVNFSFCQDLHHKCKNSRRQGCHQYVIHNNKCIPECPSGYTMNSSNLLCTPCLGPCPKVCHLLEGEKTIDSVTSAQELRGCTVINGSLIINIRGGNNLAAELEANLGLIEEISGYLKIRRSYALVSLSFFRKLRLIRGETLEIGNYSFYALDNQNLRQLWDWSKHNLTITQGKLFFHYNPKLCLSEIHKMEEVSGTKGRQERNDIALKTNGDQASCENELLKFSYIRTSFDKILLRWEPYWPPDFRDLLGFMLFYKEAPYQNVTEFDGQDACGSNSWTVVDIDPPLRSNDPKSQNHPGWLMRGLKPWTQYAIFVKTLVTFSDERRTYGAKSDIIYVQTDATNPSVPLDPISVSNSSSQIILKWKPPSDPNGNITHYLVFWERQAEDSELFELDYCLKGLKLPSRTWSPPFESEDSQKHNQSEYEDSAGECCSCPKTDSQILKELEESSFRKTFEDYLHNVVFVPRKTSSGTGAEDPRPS
Sequence (P06213 763-1382 limits assumed): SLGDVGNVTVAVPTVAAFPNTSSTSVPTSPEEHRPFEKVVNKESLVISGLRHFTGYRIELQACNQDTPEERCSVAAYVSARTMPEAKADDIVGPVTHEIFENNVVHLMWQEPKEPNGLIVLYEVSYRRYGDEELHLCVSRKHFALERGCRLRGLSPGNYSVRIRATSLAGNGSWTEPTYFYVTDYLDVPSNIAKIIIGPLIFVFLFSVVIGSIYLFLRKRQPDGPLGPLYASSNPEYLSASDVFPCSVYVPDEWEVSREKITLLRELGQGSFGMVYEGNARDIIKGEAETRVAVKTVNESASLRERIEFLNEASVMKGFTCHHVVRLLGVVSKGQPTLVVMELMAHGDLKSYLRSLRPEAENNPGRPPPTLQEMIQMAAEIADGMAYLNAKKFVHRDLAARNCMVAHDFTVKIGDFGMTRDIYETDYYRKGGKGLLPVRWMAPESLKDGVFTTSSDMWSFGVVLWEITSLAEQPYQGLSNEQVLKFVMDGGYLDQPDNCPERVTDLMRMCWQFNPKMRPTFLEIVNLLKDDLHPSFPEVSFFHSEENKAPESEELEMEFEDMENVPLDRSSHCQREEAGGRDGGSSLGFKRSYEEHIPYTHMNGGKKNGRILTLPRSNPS
Assay: Inhibition of INSR (unknown origin)
Settings: read-out: pIC50 (converted)
Readings of IC50 for the listed compounds
The reply should be a number in µM, with the unit left off.

Guide cases for IC50, answers given:
smiles-string	assay-metric	measured-number
CN(C)Cc1cccc(-c2cc3c(-c4ccc(C(N)=O)cc4)ccnc3[nH]2)c1	IC50	0.631
CN(C)CCCNC(=O)c1cccc(-c2cc3c(-c4ccc(C(N)=O)cc4)ccnc3[nH]2)c1	IC50	3.16
COc1ccccc1-c1cc2c(-c3ccc(C(N)=O)cc3)ccnc2[nH]1	IC50	1.58
Cc1c(OCCN2CCOCC2)cccc1-c1cc2c(-c3ccc(C(N)=O)cc3)ccnc2[nH]1	IC50	3.16
CN(C)CCCNC(=O)c1ccc(-c2cc3c(-c4ccc(C(N)=O)cc4)ccnc3[nH]2)cc1	IC50	0.158
COc1ccccc1-c1cc2c(-c3ccc(C(N)=O)c(C4CCCC4)c3)ccnc2[nH]1	IC50	0.794
CN(C)Cc1ccc(-c2cc3c(-c4ccc(C(N)=O)cc4)ccnc3[nH]2)cc1	IC50	0.316
Cc1c(CN2CCOCC2)cccc1-c1cc2c(-c3ccc(C(N)=O)cc3)ccnc2[nH]1	IC50	1.26

Consider the record given below.
Give the reported IC50 for this compound. `CS(=O)(=O)Nc1cccc(-c2cc3c(-c4ccc(C(N)=O)cc4)ccnc3[nH]2)c1`
1.26

---

Assay: Solubility of the compound in pH 7.4 phosphate buffer saline after 1 hr by chemiluminescence nitrogen detection method
Format: physicochemical
Details: phosphate buffered saline
assay-metric: log10(solubility at 1 h) (log10 of the value in µM)
Reminder: these figures are log10 of reported solubility at 1 h, in µM before transformation.

smiles-string	measured-number
NC(=O)c1ccc(-c2ccnc(Nc3cc(-c4ccccc4)ccc3F)n2)cc1	0.48
Cc1cc(OCCN2CCOCC2)ccc1-c1cc2c(-c3ccc(C#N)cc3)ccnc2[nH]1	0.95
COc1ccccc1Nc1ncc(Cl)c(-c2ccc(C(N)=O)c(C(C)C)c2)n1	0.70
CN(C)c1ccccc1-c1cnc2[nH]cc(-c3ccc(C(N)=O)c(C4CCCC4)c3)c2c1	0.30
NC(=O)c1ccc(-c2c[nH]c3ncc(-c4ccccc4Oc4ccccc4)cc23)cc1C1CCCC1	1.72
Cc1ccc(CN2CCOCC2)cc1-c1cc2c(-c3ccc(C(N)=O)c(C(C)C)c3)ccnc2[nH]1	0.00
O=C(O)c1ccc(-c2c[nH]c3ncc(-c4ccccc4)cc23)cc1C1CCCC1	2.18
O=C(O)c1ccc(-c2c[nH]c3ncc(-c4ccccc4Oc4ccccc4)cc23)cc1	1.38

Please list log10(solubility at 1 h) recorded for the compound `COc1ccccc1Nc1ncc(F)c(-c2ccc(C(=O)O)c(C(C)C)c2)n1`
1.99

Fill in log10(solubility at 1 h) for record `COc1ccc(-c2ccccc2)cc1Nc1nccc(-c2ccc(C(N)=O)cc2)n1`
0.85

Please give measured log10(solubility at 1 h) of the following entry: `CN(C)CCCNC(=O)c1ccc(-c2cc3c(-c4ccc(C(N)=O)cc4)ccnc3[nH]2)cc1`
1.46

# return recorded log10(solubility at 1 h) for input `NC(=O)c1ccc(-c2c[nH]c3ncc(-c4ccccc4O)cc23)cc1C1CCCC1`
0.78

---

Here, each record is paired with measured IC50 data.
Biological target: Calcium/calmodulin-dependent protein kinase kinase 2 (Homo sapiens, UniProt Q96RR4)
Test: Inhibition of full-length human GST-tagged CAMKK2 using 5FAM-AKPKGNKDYHLQTCCGSLAYRRR-amide as substrate preincubated for 30 mins followed by substrate addition measured after 120 mins by fluorescence polarization assay

Worked examples follow.
smiles-string	tested-system	result
Cc1c(OCCN2CCOCC2)cccc1-c1cc2c(-c3ccc(C(N)=O)cc3)ccnc2[nH]1	Calcium/calmodulin-dependent protein kinase kinase 2 (Homo sapiens, UniProt Q96RR4)	0.002 to 0.0158 µM
COc1ccccc1Nc1nccc(-c2ccc(C(N)=O)cc2)n1	Calcium/calmodulin-dependent protein kinase kinase 2 (Homo sapiens, UniProt Q96RR4)	0.1 to 1.26 µM
CN(C)CCCNC(=O)c1ccc(-c2cc3c(-c4ccc(C(N)=O)cc4)ccnc3[nH]2)cc1	Calcium/calmodulin-dependent protein kinase kinase 2 (Homo sapiens, UniProt Q96RR4)	0.00158 to 0.0126 µM
NC(=O)c1ccc(-c2ccnc(Nc3cc(-c4ccccc4)ccc3F)n2)cc1	Calcium/calmodulin-dependent protein kinase kinase 2 (Homo sapiens, UniProt Q96RR4)	0.02 µM
Cc1c(CN2CCOCC2)cccc1-c1cc2c(-c3ccc(C(N)=O)cc3)ccnc2[nH]1	Calcium/calmodulin-dependent protein kinase kinase 2 (Homo sapiens, UniProt Q96RR4)	0.00158 to 0.0126 µM

Answer with reported IC50 of `CS(=O)(=O)Nc1ccc(-c2cc3c(-c4ccc(C(N)=O)cc4)ccnc3[nH]2)cc1`
0.002 to 0.0126 µM

Tell me measured IC50 for `COc1ccccc1Nc1nccc(-c2ccc(C(=O)O)cc2)n1` please.
0.2 to 1.58 µM

Tell me its IC50 given `Cc1cc(OCCN2CCOCC2)ccc1-c1cc2c(-c3ccc(C#N)cc3)ccnc2[nH]1` as the entry.
0.1 to 0.251 µM

For the compound `CCc1cc(-c2c[nH]c3ncc(-c4ccccc4)cc23)ccc1C(=O)O` , give its reported IC50.
0.02 µM

Dear colleague, please send me the reported IC50 for `Cc1ccc(-c2ccccc2)cc1Nc1nccc(-c2ccc(C(N)=O)cc2)n1` when you can.
0.0316 to 0.501 µM

Give the reported value of IC50 for this record: `COc1ccccc1Nc1nccc(-c2ccc(C(N)=O)c(C(C)C)c2)n1`
0.0631 to 1.58 µM

Quickly give me recorded IC50 for `COc1ccccc1-c1cc2c(-c3ccc(C(N)=O)cc3)ccnc2[nH]1`
0.00316 to 0.02 µM

Determine from records and report IC50 for `Cc1ccc(CN2CCOCC2)cc1-c1cc2c(-c3ccc(C(N)=O)c(C(C)C)c3)ccnc2[nH]1`
0.00158 to 0.02 µM

---

Assay: Solubility of the compound in pH 7.4 phosphate buffer saline after 1 hr by chemiluminescence nitrogen detection method
Assay type: physicochemical
Details: phosphate buffered saline
assay-metric: solubility at 1 h

Examples from the recorded data:
smiles-string	solubility at 1 h
COc1ccccc1Nc1nccc(-c2ccc(C(=O)O)cc2)n1	> 444 µM
CS(=O)(=O)c1cccc(-c2cnc3[nH]cc(-c4ccc(C(N)=O)cc4)c3c2)c1	> 115 µM
Cc1cc(OCCN2CCOCC2)ccc1-c1cc2c(-c3ccc(C#N)c(C(C)C)c3)ccnc2[nH]1	< 1 µM
Cc1ccc(CN2CCOCC2)cc1-c1cc2c(-c3ccc(C(N)=O)cc3)ccnc2[nH]1	2 µM

Proceed to the following item.
Note solubility at 1 h for the molecule shown: `CN(C)Cc1ccc(-c2cc3c(-c4ccc(C(N)=O)cc4)ccnc3[nH]2)cc1`
157 µM
